The following compounds were reported with IC50 values on Galectin-3 (Homo sapiens, UniProt P17931) in different studies.
QUANTITY: IC50 (nM)

>>> val("CO[C@@H]1[C@@H](n2cc(-c3ccc(C)c(F)c3F)nn2)[C@@H](O)[C@@H](CO)O[C@@H]1Cc1cc(C2(CC#N)CC2)no1")
43
>>> val("CO[C@@H]1[C@@H](n2cc(-c3cc(F)c(F)c(F)c3)nn2)[C@@H](O)[C@@H](CO)O[C@H]1C(=O)N(Cc1cc(C)nn1C)[C@H]1CCCC[C@@H]1O")
151
>>> val("[2H]C([2H])([2H])OC1C(n2cc(-c3cc(F)c(F)c(F)c3)nn2)[C@@H](O)C(CO)O[C@H]1[C@H](OCc1ccc(Br)cc1)C(=O)NC1CC(F)(F)C1 (stereo partly drawn)")
143
>>> val("CO[C@@H]1[C@@H](n2cc(-c3cc(F)c(C)c(F)c3)nn2)[C@@H](O)[C@@H](CO)O[C@H]1C(=O)N(c1cc(Cl)cc(C#N)c1)[C@H]1CCC[C@@H]1O")
17.3
>>> val("CO[C@@H]1[C@@H](n2cc(-c3ccc(Br)c(F)c3F)nn2)[C@@H](O)[C@@H](CO)O[C@@H]1CC1=NOC2(CCCCC2)C1")
160
>>> val("CO[C@@H]1[C@@H](n2cc(-c3cc(F)c(F)c(F)c3)nn2)[C@@H](O)[C@@H](CO)O[C@H]1C(=O)N(Cc1scnc1C)[C@H]1CCCC[C@@H]1O")
231

---

The following compounds were reported with IC50 values on Galectin-3 (Homo sapiens, UniProt P17931) in different studies.
QUANTITY: IC50 (nM)

>>> val("CO[C@@H]1[C@@H](n2cc(-c3cc(F)c(F)c(F)c3)nn2)[C@@H](O)[C@@H](CO)O[C@@H]1Cc1cn(C(C)(C)C)nn1")
85
>>> val("CO[C@@H]1[C@@H](n2cc(-c3cc(F)c(F)c(Cl)c3)nn2)[C@@H](O)[C@@H](CO)O[C@H]1C(=O)N(c1cc(Cl)cc(C#N)c1)[C@@H]1CCC[C@H]1O")
103
>>> val("CO[C@@H]1[C@@H](n2cc(-c3cc(F)c(F)c(F)c3)nn2)[C@@H](O)[C@@H](CO)O[C@@H]1C[C@@H]1CN(C2CCN(S(C)(=O)=O)CC2)C(=O)O1")
18
>>> val("CO[C@@H]1[C@@H](n2cc(-c3cc(F)c(F)c(Cl)c3)nn2)[C@@H](O)[C@@H](CO)O[C@H]1C(=O)N(c1ccc(F)c(F)c1)[C@H]1CCCC[C@@H]1O")
53
>>> val("CO[C@@H]1[C@@H](n2cc(-c3cc(F)cc(Br)c3)nn2)[C@@H](O)[C@@H](CO)O[C@H]1C(=O)N(c1cc(F)cc(C#N)c1)[C@H]1CCC[C@@H]1O")
146

---

The following compounds were reported with IC50 values on Galectin-3 (Homo sapiens, UniProt P17931) in different studies.
QUANTITY: IC50 (nM)

>>> val("CO[C@@H]1[C@@H](n2cc(-c3ccc(C)c(F)c3F)nn2)[C@@H](O)[C@@H](CO)O[C@@H]1Cc1cc(C(C)c2ccccc2)no1 (some centres unmarked)")
550
>>> val("CO[C@@H]1[C@@H](n2cc(-c3ccc(C#N)c(F)c3)nn2)[C@@H](O)[C@@H](CO)O[C@H]1C(=O)N(c1cc(Cl)cc(C#N)c1)[C@H]1CCCC[C@@H]1O")
29
>>> val("CO[C@@H]1[C@@H](n2cc(-c3cc(F)c(Br)c(F)c3)nn2)[C@@H](O)[C@@H](CO)O[C@H]1C(=O)N(c1ccc(F)c(F)c1)[C@H]1CCCC[C@@H]1O")
62
>>> val("CO[C@@H]1[C@@H](n2cc(-c3ccc(C)c(F)c3F)nn2)[C@@H](O)[C@@H](CO)O[C@H]1C(=O)N(c1cc(Cl)cc(C#N)c1)[C@@H]1CCC[C@H]1O")
53.9
>>> val("CO[C@@H]1[C@@H](n2cc(-c3cc(F)c(F)c(F)c3)nn2)[C@@H](O)[C@@H](CO)O[C@@H]1Cn1cc(C2CCCC2)nn1")
250

---

The following compounds were reported with IC50 values on Galectin-3 (Homo sapiens, UniProt P17931) in different studies.
QUANTITY: IC50

>>> val("COCCCNC(=O)[C@@H](OCc1ccc(Br)cc1)[C@@H]1OC(CO)[C@H](O)C(n2cc(-c3cc(F)c(F)c(F)c3)nn2)C1O (stereo partly drawn)")
"204 nM"
>>> val("COC1C(n2cc(-c3cc(F)c(F)c(F)c3)nn2)[C@@H](O)C(CO)O[C@H]1[C@H](OCc1ccc(Br)cc1)C(=O)N[C@@H](C)C(F)(F)F (stereo partly drawn)")
"182 nM"
>>> val("CNC(=O)[C@@H](OCc1ccccc1)[C@@H]1OC(CO)[C@H](O)[C@H](n2cc(-c3cc(F)c(F)c(F)c3)nn2)C1OC (stereo partly drawn)")
"2610 nM"
>>> val("CC(C)(C)OC(=O)N1CCC(C2=NOC(C[C@H]3O[C@H](CO)[C@H](O)[C@H](n4cc(-c5cc(F)c(F)c(F)c5)nn4)[C@H]3OCC(=O)O)C2)CC1 (mixture of isomers)")
"68 nM"
>>> val("[2H]C([2H])([2H])OC1C(n2cc(-c3cc(F)c(F)c(F)c3)nn2)[C@@H](O)C(CO)O[C@H]1[C@H](OCc1ccc(Cl)cc1)C(C)=NOCC1CC1 (stereo partly drawn)")
"10600 nM"
>>> val("CC(C)(C)OC(=O)N1CCC(C2=NOC(C[C@H]3O[C@H](CO)[C@H](O)[C@H](n4cc(-c5ccc(Cl)c(Cl)c5)nn4)[C@H]3O)C2)CC1 (stereo partly drawn)")
"110 nM"

---

The following compounds were reported with pIC50 values on Galectin-3 (Homo sapiens, UniProt P17931) in different studies.
pIC50: −log10 of the molar value.
QUANTITY: pIC50

>>> val("CN=[S@](=O)(C(C)C)N1CCC(c2cc(C[C@H]3O[C@H](CO)[C@H](O)[C@H](n4cc(-c5cc(F)c(F)c(F)c5)nn4)[C@H]3OC)no2)CC1")
7.38
>>> val("CO[C@@H]1[C@@H](n2cc(-c3ccc(F)c(F)c3F)nn2)[C@@H](O)[C@@H](CO)O[C@@H]1Cc1cc(C2CCCC2)on1")
7.00
>>> val("OCCC1CC(C[C@H]2O[C@H](CO)[C@H](O)[C@H](n3cc(-c4cc(F)c(F)c(F)c4)nn3)[C@H]2O)=NO1 (stereo partly drawn)")
5.85
>>> val("CO[C@@H]1[C@@H](n2cc(-c3cc(F)cc(Cl)c3)nn2)[C@@H](O)[C@@H](CO)O[C@@H]1Cc1cc(C2CCN(C(C)=O)CC2)on1")
6.81
>>> val("COC1CCC(N2C[C@H](C[C@H]3O[C@H](CO)[C@H](O)[C@H](n4cc(-c5cc(F)c(F)c(F)c5)nn4)[C@H]3OC)OC2=O)CC1 (mixture of isomers)")
5.91
>>> val("C#Cc1ccc(-c2cn([C@H]3[C@@H](O)[C@@H](CO)O[C@H](Cc4cc(C(C)(C)C)on4)[C@@H]3OC)nn2)c(F)c1F")
6.64
>>> val("OC[C@H]1O[C@H](Cc2cc(C3CCC4(CC3)OCCO4)on2)[C@H](O)[C@@H](n2cc(-c3cc(F)c(F)c(F)c3)nn2)[C@H]1O")
6.15
>>> val("CNC(=O)[C@@H](OCc1ccc(C(=O)OC)cc1)[C@@H]1OC(CO)[C@H](O)C(n2cc(-c3cc(F)c(F)c(F)c3)nn2)C1O (stereo partly drawn)")
5.34
>>> val("O=C([C@@H]1O[C@H](CO)[C@H](O)[C@H](n2cc(-c3cc(F)c(F)c(Cl)c3)nn2)[C@H]1O)N(Cc1ccccc1C(F)(F)F)[C@H]1CCCC[C@@H]1O")
7.02
>>> val("CO[C@@H]1[C@@H](n2cc(-c3cc(F)c(F)c(F)c3)nn2)[C@@H](O)[C@@H](CO)O[C@@H]1CC1=NOC2(CCCCC2)C1")
6.62
>>> val("CO[C@@H]1[C@@H](n2cc(-c3ccc(C#N)c(F)c3)nn2)[C@@H](O)[C@@H](CO)O[C@H]1C(=O)N(c1cc(Br)cc(C#N)c1)[C@H]1CCC[C@@H]1O")
7.21
>>> val("CO[C@@H]1[C@@H](n2cc(-c3cc(F)c(F)c(F)c3)nn2)[C@@H](O)[C@@H](CO)O[C@@H]1C[C@@H]1CC(C2CCN(C(C)=O)CC2)=NO1")
7.15

---

The following molecules were reported with IC50 values on Galectin-3 (Homo sapiens, UniProt P17931) in different studies.
QUANTITY: IC50 (nM)

>>> val("COc1ccccc1CN(C(=O)[C@@H]1O[C@H](CO)[C@H](O)[C@H](n2cc(-c3cc(F)c(F)c(F)c3)nn2)[C@H]1OC)[C@H]1CCCC[C@@H]1O")
224
>>> val("CO[C@@H]1[C@@H](n2cc(-c3ccc(F)c(F)c3F)nn2)[C@@H](O)[C@@H](CO)O[C@@H]1CC1=NO[C@]2(CC[C@H](NC(=O)OC(C)(C)C)CC2)C1")
12
>>> val("O=C([C@@H]1O[C@H](CO)[C@H](O)[C@H](n2cc(-c3cc(F)c(F)c(F)c3)nn2)[C@H]1O)N(Cc1ccccc1)[C@H]1CCCC[C@@H]1O")
154
>>> val("O=C(CO[C@@H]1[C@@H](n2cc(-c3cc(F)c(F)c(F)c3)nn2)[C@@H](O)[C@@H](CO)O[C@H]1C(=O)N(c1cc(Cl)cc(Cl)c1)[C@H]1CCCC[C@@H]1O)N1CC[C@@H](O)C1")
16
>>> val("CO[C@@H]1[C@@H](n2cc(-c3ccc(F)c(F)c3F)nn2)[C@@H](O)[C@@H](CO)O[C@@H]1Cc1cc(C2(O)CCCC2)on1")
57
>>> val("CO[C@@H]1[C@@H](n2cc(-c3ccc(F)c(F)c3F)nn2)[C@@H](O)[C@@H](CO)O[C@H]1C(=O)N(c1cc(Cl)cc(C#N)c1)[C@H]1CCC[C@@H]1O")
25.7
>>> val("CO[C@@H]1[C@@H](n2cc(-c3ccc(C#N)c(F)c3)nn2)[C@@H](O)[C@@H](CO)O[C@H]1C(=O)N(c1cc(Br)cc(C#N)c1)[C@@H]1CCC[C@H]1O")
729
>>> val("CCC(=NOCC1CC1)[C@@H](OCc1ccc(Cl)cc1)[C@@H]1OC(CO)[C@H](O)C(n2cc(-c3cc(F)c(F)c(F)c3)nn2)C1O (stereo partly shown)")
2800
>>> val("CO[C@@H]1[C@@H](n2cc(-c3cc(F)c(F)c(F)c3)nn2)[C@@H](O)[C@@H](CO)O[C@@H]1CC1=NO[C@]2(CC[C@H](NC(C)C)CC2)C1")
220
>>> val("CO[C@@H]1[C@@H](n2cc(-c3ccc(F)c(F)c3F)nn2)[C@@H](O)[C@@H](CO)O[C@@H]1Cc1cc(C2(C#N)CCCC2)no1")
140
>>> val("CO[C@@H]1[C@@H](n2cc(-c3ccc(Cl)c(F)c3F)nn2)[C@@H](O)[C@@H](CO)O[C@@H]1Cc1cc(C2(C#N)CCCC2)no1")
93
>>> val("CO[C@@H]1[C@@H](n2cc(-c3cc(F)c(F)c(F)c3)nn2)[C@@H](O)[C@@H](CO)O[C@@H]1Cc1cc(C2CCCCC2)on1")
560
>>> val("CC(C)O[C@@H]1[C@@H](n2cc(-c3cc(F)c(F)c(F)c3)nn2)[C@@H](O)[C@@H](CO)O[C@@H]1Cc1cc(C2CCNCC2)on1")
990
>>> val("CC(C)(C)c1cc(C[C@H]2O[C@H](CO)[C@H](O)[C@H](n3cc(-c4cc(F)c(F)c(F)c4)nn3)[C@H]2OCC(=O)O)on1")
71
>>> val("CO[C@@H]1[C@@H](n2cc(-c3cc(F)c(F)c(F)c3)nn2)[C@@H](O)[C@@H](CO)O[C@@H]1Cc1cc(C2CCN(S(=O)(=O)N3CCCCC3)CC2)on1")
69
>>> val("CO[C@@H]1[C@@H](n2cc(-c3cc(F)c(F)c(F)c3)nn2)[C@@H](O)[C@@H](CO)O[C@H]1C(=O)N(c1cc(Br)cc(C#N)c1)[C@@H]1CC[C@H]1O")
191
>>> val("COc1cc(-c2cn([C@H]3[C@@H](O)[C@@H](CO)O[C@H](CC4CC(C5CCN(C(=O)OC(C)(C)C)CC5)=NO4)[C@@H]3O)nn2)cc(F)c1F (stereo partly shown)")
180
>>> val("CO[C@@H]1[C@@H](n2cc(-c3ccc(C)c(F)c3F)nn2)[C@@H](O)[C@@H](CO)O[C@@H]1Cc1cc(C2(O)CCC2)on1")
79
>>> val("CO[C@@H]1[C@@H](n2cc(-c3cc(F)c(F)c(F)c3)nn2)[C@@H](O)[C@@H](CO)O[C@@H]1Cc1cc(C(C)(C)C)no1")
83
>>> val("CO[C@@H]1[C@@H](n2cc(-c3ccc(C)c(F)c3F)nn2)[C@@H](O)[C@@H](CO)O[C@@H]1Cc1cc([C@H]2C[C@H]2O)on1")
180
>>> val("CO[C@@H]1[C@@H](n2cc(-c3cc(F)c(F)c(F)c3)nn2)[C@@H](O)[C@@H](CO)O[C@H]1C(=O)N(c1ccccc1)[C@H]1CCCC[C@@H]1O")
73
>>> val("CO[C@@H]1[C@@H](n2cc(-c3cc(F)cc(F)c3)nn2)[C@@H](O)[C@@H](CO)O[C@H]1C(=O)N(c1cccc(Br)c1)[C@H]1CCCC[C@@H]1O")
25
